- assay: inhibitors of TNFa-induced NFkB p65 translocation, primary screen, imaging, HUVEC, MLSMR starter and 10KST1 sets (AID 438);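 also: compound added about 3h40 before a 20 min TNFalpha stimulation; signal is the nuclear over cytoplasmic p65 intensity ratio per well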
- particulars: HUVEC TNFa-induced p65 nuclear translocation; at 2 µM, stronger effect = higher value, 0% TNFa-plus-vehicle, 100% no-TNFa wells
value-type: inhibition (%)

| molecule | value-type | value-unit | result-value |
| --- | --- | --- | --- |
| c1ccc(-c2nnc3n2N=C(c2ccc4c(c2)OCO4)CS3)nc1 | inhibition | % | -5 |
| CCCC(=O)O[C@]1(C(=O)CCl)[C@@H](C)C[C@H]2[C@@H]3CCC4=CC(=O)C=C[C@]4(C)[C@@]3(F)C(=O)C[C@@]21C | inhibition | % | -3.2 |
| O=C1OC(Nc2ccc(Br)cn2)c2ccccc21 (configuration not stated) | inhibition | % | 2.6 |
| CCN(CC)CCNc1nc2c(c(=O)[nH]c(=O)n2C)n1CCOc1ccccc1 | inhibition | % | -1.2 |
| CCN(CC)CCN1C(=O)C(=O)/C(=C(/O)c2ccc(OC(C)C)cc2)C1c1ccncc1 (configuration not stated) | inhibition | % | -5.6 |
| O=C(COc1ccccc1)Nc1ccc(-c2nnc(-c3ccco3)o2)cc1 | inhibition | % | -4.3 |
| O=C(CC(c1ccccc1)c1ccco1)N1CCOCC1 (configuration not stated) | inhibition | % | -28.3 |
| CC1(C)CC(=O)C2=C(C1)N(Cc1ccco1)C(=O)C2(NC(=O)c1cccnc1)C(F)(F)F (configuration not stated) | inhibition | % | -8.6 |
| CCn1cc(C(=O)NCC2CCCO2)c(=O)c2cc(F)c(N3CCN(C)CC3)cc21 (configuration not stated) | inhibition | % | -6.7 |
| CCOC(=O)CSc1nc2sc3c(c2c(=O)[nH]1)CC(C)(C)OC3 | inhibition | % | -40.2 |
| O=C(O)Cc1ccc(-c2ccccc2)cc1 | inhibition | % | -3 |
| COCCOC(=O)c1c(C)nc(SCC(=O)Nc2ccc(C)cc2)c(C#N)c1-c1ccco1 | inhibition | % | 0.9 |
| CCOc1nc(SC(C(C)=O)C(=O)Nc2ccccc2)nc(N(C)C)n1 (configuration not stated) | inhibition | % | -20.6 |
| COc1ccccc1-c1cc(-c2cc(Cl)ccc2O)n[nH]1 | inhibition | % | -13 |
| CCCc1nnc(NC(=O)c2c(O)c3c([nH]c2=O)CCCC3)s1 | inhibition | % | -15.5 |
| CC(=O)NCCCCCCNC(C)=O | inhibition | % | -2 |
| CC(NC(=O)OC(C)(C)C)C(=O)Oc1ccc2ccc(=O)oc2c1 (configuration not stated) | inhibition | % | -16.8 |
| Cc1cc(=O)n2[nH]cnc2n1 | inhibition | % | -4.6 |
| Cc1ccccc1C(OCCN(C)C)c1ccccc1 (configuration not stated) | inhibition | % | -4.5 |
| O=C(O)c1cc(=O)cc(C(=O)O)[nH]1 | inhibition | % | 1.8 |
| COC(=O)c1cc2c(=O)n3cccc(C)c3nc2n(Cc2cccnc2)c1=N | inhibition | % | -15 |
| Cc1cc(C)n(Cc2cc(C)c(Cn3nc(C)cc3C)cc2C)n1 | inhibition | % | 0.2 |
| Clc1ccc2nc(CSc3nc4ccccc4o3)cn2c1 | inhibition | % | -12.3 |
| COc1ccc2oc(=O)c(-c3nc(C)cs3)cc2c1 | inhibition | % | -9.3 |
| COc1cccc(-c2nc(N3CCC(C)CC3)c3ccccc3n2)c1O | inhibition | % | -3.3 |
| CC(=O)Nc1ccccc1O | inhibition | % | 0.8 |
| CCOC(=O)c1ccc(N=Cc2nc(-c3ccccc3)oc2OC(C)=O)cc1 | inhibition | % | -6.6 |
| COc1cc(C)nc(N(C)S(=O)(=O)c2ccccc2Cl)n1 | inhibition | % | -9 |
| Cc1ccccc1C(=O)c1ccc2c(c1)n(C)c(=O)n2C | inhibition | % | -22.1 |
| COc1cccc(C2/C(=C(/O)c3cnn(-c4ccccc4)c3C)C(=O)C(=O)N2CCN(C)C)c1 (configuration not stated) | inhibition | % | -2.9 |
| O/N=C1\CCc2cc(Cl)ccc21 | inhibition | % | -4 |
| O=C1c2ccccc2S(=O)(=O)N1CC(O)COc1ccc(Cl)cc1 (configuration not stated) | inhibition | % | -14.1 |
| CCCOc1ccc(CSC(CC(=O)O)C(=O)O)cc1 (configuration not stated) | inhibition | % | 1.4 |
| O=C(O)CN(c1ccccc1)C1SC(=O)NC1=O (configuration not stated) | inhibition | % | -0.1 |
| CCOC(=O)CSC1=C(C#N)C(=O)NC(c2ccc(OC)c(OC)c2)S1 (configuration not stated) | inhibition | % | -4.2 |
| CCN(CC)CCNC(=O)c1c(C)oc2cc(Br)c(OC)cc12 | inhibition | % | -8.7 |
| COc1ccc(N2CCN(C3CC(=O)NC3=O)CC2)cc1 (configuration not stated) | inhibition | % | -26.9 |
| COC(=O)c1cc(=O)n2c(-c3ccc(OC)cc3)csc2n1 | inhibition | % | -6.9 |
| COC(=O)C(NC(C)=O)(Nc1ccccc1)C(=O)OC | inhibition | % | -19.3 |
| Nc1nnc(CC2=CCCCC2)s1 | inhibition | % | -13.4 |
| COc1cccc(/C(O)=C2\C(=O)C(=O)N(c3ccccn3)C2c2ccccc2OC)c1 (configuration not stated) | inhibition | % | -5.9 |
| Clc1ccc(-n2ncc3c(NCCCn4ccnc4)ncnc32)cc1 | inhibition | % | -10.7 |
| CN(Cc1ccccc1)Cc1c[nH]c2ccccc12 | inhibition | % | -15.1 |
| O=C(O)Cc1cc(I)c(Oc2ccc(O)c(I)c2)c(I)c1 | inhibition | % | 3.9 |
| CCCCc1c(C)nn(-c2nnc3c4ccccc4n(C)c3n2)c1C | inhibition | % | -12.6 |
| COc1cccc(/C=C2/CN(C)CC3=C2OC(N)=C(C#N)C3c2cccc(OC)c2)c1 (configuration not stated) | inhibition | % | -0.3 |
| Nc1nnc(Cc2ccc(Cl)c(Cl)c2)s1 | inhibition | % | 2.9 |

* * *

- assay: DUSP6 inhibitors restoring Erk phosphorylation by chemical complementation, primary imaging in DUSP6-transfected HeLa (AID 609)
- particulars: HeLa MKP-3 transfected, phospho-Erk imaging KS statistic; measured here: nuclear pErk red intensity z-score; at 10 µM; stronger effect = higher value; cells stimulated with TPA for 15 min
Label rule, in plain words: z-score of 0.8 and up is yes (1), under 0.8 is no (0).

| molecule | label |
| --- | --- |
| Nc1ccc2c(c1)N1CCN=C1S2 | no (0) |
| OCCNC1=NCCN1 | yes (1) |
| O=C(O)CCc1cc(I)c(Oc2ccc(O)c(I)c2)c(I)c1 | no (0) |
| CC(C)C1Cc2c(C#N)c(N)sc(=S)c2CO1 (configuration not stated) | no (0) |
| CCOC(=O)C(NC=O)(NC(C)(C)C)C(=O)OCC | yes (1) |
| CC(C)(C)OC(=O)N1CC=C2C(C#N)=C(N)C(C#N)(C#N)[C@H](c3cccnc3)[C@H]2C1 | no (0) |
| CC1(c2ccco2)NC(=O)NC1=O (configuration not stated) | no (0) |
| CNC(=O)CC(C(=O)O)c1ccc(OC(C)C)cc1 (configuration not stated) | yes (1) |
| CN(C)c1nc2sc3c(c2c(=O)n1C)CC(C)(C)OC3 | yes (1) |
| CCC1CCCCN1c1nc(-c2cccc(OC)c2O)nc2ccccc12 (configuration not stated) | no (0) |
| N#CCCSCc1ccc(OCC(=O)O)cc1 | no (0) |
| CC(=O)Oc1ccccc1C1OC(=O)c2ccccc2N1C(C)=O (configuration not stated) | no (0) |

* * *

- assay: inhibitors of E-selectin induction by TNFa, primary screen, imaging, HUVEC, immunofluorescence, MLSMR starter and 10KST1 sets (AID 487);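 also: signal is fraction of cell area covered by stained E-selectin grains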
- particulars: HUVEC TNFalpha-induced E-selectin immunofluorescence imaging, at 2 µM; stronger effect = higher value
value-type: inhibition (%)

| molecule | value-type | result-value |
| --- | --- | --- |
| CCCN(CCC)S(=O)(=O)c1ccc(C(=O)O)cc1 | inhibition | -101 |
| N[C@@H](Cc1ccc(O)c(I)c1)C(=O)O | inhibition | -11.6 |
| Cc1cc(C(F)(F)F)nn1CC(=O)NCC1CCCO1 (configuration not stated) | inhibition | -24 |
| COc1ccc(Cn2c(N)c(C#N)c3nc4ccccc4nc32)cc1OC | inhibition | -66.5 |
| Cc1nn(C)cc1/C=N/O | inhibition | -8.8 |
| CC1(C(=O)CSc2nc3ccccc3s2)CCC(=O)O1 (configuration not stated) | inhibition | -179 |
| CC(C)Nc1nc(NC(C)C)nc(N(C)n2cnnc2)n1 | inhibition | 27.2 |
| COc1cccc(NC(=O)CSC2=C(C#N)C(c3ccco3)C3=C(CCCC3=O)N2)c1 (configuration not stated) | inhibition | -19.9 |
| Cc1sccc1C1C(C#N)=C(N)SC(N)=C1C#N | inhibition | -22.1 |
| CCn1c(SC(C)C(=O)O)nc2sc3c(c2c1=O)CCC3 (configuration not stated) | inhibition | 46 |
| COc1ccc(NC2CC(=O)N(C)C2=O)cc1 (configuration not stated) | inhibition | 15 |
| CN1C(=O)c2ccc(N(C)C)cc2C1=O | inhibition | 17.3 |
